- measured_target: Prp43 F357A (UniProt P53131 1-767, F357A)
- assay_protocol: filter binding
readout_type: Kd (nM)
State the answer as a number, implicitly in nM.

Given the binder GACGGGCUGUUGGUGAUGGAC (ssRNA) [21-mer ssRNA] , what is its reported Kd? 43
